Record form. Attribute: IC50. Fill in for each entry.
Tested on: subgenomic HCV replicon BM4-5 in Huh7 cells
Assay: Antiviral assay on HCV subgenomic replicon, Northern blot of (+)-strand HCV RNA
Type: cell-based, Hepatitis C Virus
Conditions: Hepatitis C virus, 72 h; Huh7 BM4-5 replicon, positive strand HCV RNA by Northern blot, three days treatment; read-out: IC50, anti-HCV activity, (+)-RNA

O=c1[nH]c(=O)n([C@@H]2O[C@H](CO)C[C@H]2O)cc1C#CBr [Compound 13c, 5-(2-Bromoethynyl)-3′-deoxyuridine]: > 300 µM
O=c1[nH]c(=O)n([C@@H]2O[C@H](CO)C[C@H]2O)cc1/C(I)=C\I [Compound 14c, (E)-5-(1,2-Diiodovinyl)-3′-deoxyuridine]: > 200 µM
O=c1[nH]c(=O)n([C@@H]2O[C@H](CO)[C@@H](O)[C@H]2O)cc1C#CI [Compound 12b, 5-(2-Iodoethynyl)-uridine]: > 200 µM
O=c1[nH]c(=O)n([C@H]2C[C@H](O)[C@@H](CO)O2)cc1/C(Br)=C\Br [Compound 17a, (E)-5-(1,2-Dibromovinyl)-2′-deoxyuridine]: < 200 µM
O=c1[nH]c(=O)n([C@@H]2O[C@H](CO)C[C@H]2O)cc1/C(Cl)=C\I [Compound 16c]: > 200 µM

// next entry
QUERY: Record O=c1[nH]c(=O)n([C@@H]2O[C@H](CO)[C@@H](O)[C@H]2O)cc1C#CBr [Compound 13b, 5-(2-bromoethynyl)-uridine] : what is its IC50 with subgenomic HCV replicon BM4-5 in Huh7 cells?
RESULT: 58 µM
